# Assay System: butyrylcholinesterase (BuChE) (Homo sapiens, UniProt P06276)
# Sequence (P06276 29-602): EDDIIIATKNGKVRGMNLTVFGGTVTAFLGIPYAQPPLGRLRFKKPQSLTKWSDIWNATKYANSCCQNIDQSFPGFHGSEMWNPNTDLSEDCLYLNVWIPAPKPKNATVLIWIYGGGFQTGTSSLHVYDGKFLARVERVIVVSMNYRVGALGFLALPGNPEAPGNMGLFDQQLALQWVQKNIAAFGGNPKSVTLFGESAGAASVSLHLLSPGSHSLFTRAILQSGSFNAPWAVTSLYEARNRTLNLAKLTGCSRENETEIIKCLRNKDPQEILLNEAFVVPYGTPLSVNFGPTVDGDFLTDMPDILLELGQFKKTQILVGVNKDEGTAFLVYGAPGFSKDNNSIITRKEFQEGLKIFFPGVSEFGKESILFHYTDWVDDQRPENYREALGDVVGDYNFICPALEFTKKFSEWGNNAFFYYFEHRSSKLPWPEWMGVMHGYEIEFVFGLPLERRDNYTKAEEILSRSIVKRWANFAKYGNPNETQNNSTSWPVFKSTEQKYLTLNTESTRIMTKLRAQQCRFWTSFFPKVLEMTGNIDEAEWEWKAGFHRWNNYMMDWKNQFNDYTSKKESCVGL
# Assay Overview: biochemical
# Test Context: 80 µg/mL (~160 µM)
# reported inhibition at 160 µM; entries follow

Substance Smiles	Units Text	inhibition at 160 µM
Cc1ccc(-c2csc(=NNC(=O)COc3ccc4c(c3)CCCC4)n2-c2ccccc2)cc1	%	33.2
O=C(COc1ccc2c(c1)CCCC2)NN=c1scc(-c2ccccc2)n1C1CCCCC1	%	28
COc1ccc(-c2csc(=NNC(=O)COc3ccc4c(c3)CCCC4)n2C2CCCCC2)cc1	%	15.9
O=C(COc1ccc2c(c1)CCCC2)NN=c1scc(-c2ccccc2)n1-c1ccccc1	%	16.5
